- assayContext: in isopropanol, 298.15 K
measurementType: solubility (mole fraction)

smilesInput: O=C1c2cccc(Cl)c2C(=O)N1c1ccccc1
resultValue: 0.000132

###

- assayContext: in 1,4-dioxane, 293.15 K

smilesInput: O=C1c2cccc(Cl)c2C(=O)N1c1ccccc1
solubility (mole fraction): 0.00979

###

- assayContext: in isobutanol, 288.15 K

smilesInput: O=C1c2cccc(Cl)c2C(=O)N1c1ccccc1
solubility (mole fraction): 0.000116

###

- assayContext: in isobutanol, 305.65 K

smilesInput: O=C1c2cccc(Cl)c2C(=O)N1c1ccccc1
solubility (mole fraction): 0.000296

###

- assayContext: in acetone, 293.15 K

smilesInput: O=C1c2cccc(Cl)c2C(=O)N1c1ccccc1
solubility (mole fraction): 0.00358

###

- assayContext: in isopropanol, 303.15 K

smilesInput: O=C1c2cccc(Cl)c2C(=O)N1c1ccccc1
solubility (mole fraction): 0.000178

###

- assayContext: in acetonitrile, 290.65 K
measurementType: solubility (mole fraction)

smilesInput: O=C1c2cccc(Cl)c2C(=O)N1c1ccccc1
measurementType: solubility (mole fraction)
resultValue: 0.00216

###

- assayContext: in methanol, 310.65 K

smilesInput: O=C1c2cccc(Cl)c2C(=O)N1c1ccccc1
solubility (mole fraction): 0.000428

###

- assayContext: in acetic acid, 310.65 K
measurementType: solubility (mole fraction)

smilesInput: O=C1c2cccc(Cl)c2C(=O)N1c1ccccc1
resultValue: 0.00225

###

- assayContext: in ethyl acetate, 310.65 K
measurementType: solubility (mole fraction)

smilesInput: O=C1c2cccc(Cl)c2C(=O)N1c1ccccc1
resultValue: 0.00484

###

- assayContext: in ethyl acetate, 305.65 K
measurementType: solubility (mole fraction)

smilesInput: O=C1c2cccc(Cl)c2C(=O)N1c1ccccc1
measurementType: solubility (mole fraction)
resultValue: 0.00412

###

- assayContext: in acetone, 315.65 K

smilesInput: O=C1c2cccc(Cl)c2C(=O)N1c1ccccc1
solubility (mole fraction): 0.00779

###

- assayContext: in ethyl acetate, 303.15 K

smilesInput: O=C1c2cccc(Cl)c2C(=O)N1c1ccccc1
solubility (mole fraction): 0.0038

###

- assayContext: in acetic acid, 320.65 K
measurementType: solubility (mole fraction)

smilesInput: O=C1c2cccc(Cl)c2C(=O)N1c1ccccc1
measurementType: solubility (mole fraction)
resultValue: 0.00328

###

- assayContext: in ethyl acetate, 315.65 K
measurementType: solubility (mole fraction)

smilesInput: O=C1c2cccc(Cl)c2C(=O)N1c1ccccc1
measurementType: solubility (mole fraction)
resultValue: 0.00568

###

- assayContext: in acetone, 303.15 K
measurementType: solubility (mole fraction)

smilesInput: O=C1c2cccc(Cl)c2C(=O)N1c1ccccc1
resultValue: 0.00505

###

- assayContext: in n-butanol, 300.65 K
measurementType: solubility (mole fraction)

smilesInput: O=C1c2cccc(Cl)c2C(=O)N1c1ccccc1
resultValue: 0.000345

###

- assayContext: in methanol, 298.15 K

smilesInput: O=C1c2cccc(Cl)c2C(=O)N1c1ccccc1
solubility (mole fraction): 0.000249

###

- assayContext: in methanol, 290.65 K

smilesInput: O=C1c2cccc(Cl)c2C(=O)N1c1ccccc1
solubility (mole fraction): 0.000171

###

- assayContext: in n-propanol, 313.15 K
measurementType: solubility (mole fraction)

smilesInput: O=C1c2cccc(Cl)c2C(=O)N1c1ccccc1
measurementType: solubility (mole fraction)
resultValue: 0.000668

###

- assayContext: in isopropanol, 318.15 K

smilesInput: O=C1c2cccc(Cl)c2C(=O)N1c1ccccc1
solubility (mole fraction): 0.000387

###

- assayContext: in 1,4-dioxane, 310.65 K
measurementType: solubility (mole fraction)

smilesInput: O=C1c2cccc(Cl)c2C(=O)N1c1ccccc1
measurementType: solubility (mole fraction)
resultValue: 0.0171

###

- assayContext: in isopropanol, 308.15 K

smilesInput: O=C1c2cccc(Cl)c2C(=O)N1c1ccccc1
solubility (mole fraction): 0.000237

###

- assayContext: in ethyl acetate, 290.65 K
measurementType: solubility (mole fraction)

smilesInput: O=C1c2cccc(Cl)c2C(=O)N1c1ccccc1
measurementType: solubility (mole fraction)
resultValue: 0.00232

###

- assayContext: in isobutanol, 320.65 K
measurementType: solubility (mole fraction)

smilesInput: O=C1c2cccc(Cl)c2C(=O)N1c1ccccc1
measurementType: solubility (mole fraction)
resultValue: 0.000679

###

- assayContext: in ethyl acetate, 293.15 K

smilesInput: O=C1c2cccc(Cl)c2C(=O)N1c1ccccc1
solubility (mole fraction): 0.00255

###

- assayContext: in n-butanol, 308.15 K

smilesInput: O=C1c2cccc(Cl)c2C(=O)N1c1ccccc1
solubility (mole fraction): 0.000478

###

- assayContext: in acetonitrile, 305.65 K

smilesInput: O=C1c2cccc(Cl)c2C(=O)N1c1ccccc1
solubility (mole fraction): 0.00361

###

- assayContext: in ethyl acetate, 320.65 K
measurementType: solubility (mole fraction)

smilesInput: O=C1c2cccc(Cl)c2C(=O)N1c1ccccc1
measurementType: solubility (mole fraction)
resultValue: 0.00669

###

- assayContext: in n-propanol, 323.15 K

smilesInput: O=C1c2cccc(Cl)c2C(=O)N1c1ccccc1
solubility (mole fraction): 0.00103

###

- assayContext: in isobutanol, 290.65 K

smilesInput: O=C1c2cccc(Cl)c2C(=O)N1c1ccccc1
solubility (mole fraction): 0.000128

###

- assayContext: in 1,4-dioxane, 323.15 K

smilesInput: O=C1c2cccc(Cl)c2C(=O)N1c1ccccc1
solubility (mole fraction): 0.0266

###

- assayContext: in n-butanol, 295.65 K
measurementType: solubility (mole fraction)

smilesInput: O=C1c2cccc(Cl)c2C(=O)N1c1ccccc1
resultValue: 0.000266

###

- assayContext: in n-propanol, 308.15 K

smilesInput: O=C1c2cccc(Cl)c2C(=O)N1c1ccccc1
solubility (mole fraction): 0.000527

###

- assayContext: in methanol, 308.15 K

smilesInput: O=C1c2cccc(Cl)c2C(=O)N1c1ccccc1
solubility (mole fraction): 0.000381

###

- assayContext: in isobutanol, 303.15 K
measurementType: solubility (mole fraction)

smilesInput: O=C1c2cccc(Cl)c2C(=O)N1c1ccccc1
measurementType: solubility (mole fraction)
resultValue: 0.000258

###

- assayContext: in acetic acid, 315.65 K
measurementType: solubility (mole fraction)

smilesInput: O=C1c2cccc(Cl)c2C(=O)N1c1ccccc1
resultValue: 0.00273

###

- assayContext: in isobutanol, 313.15 K
measurementType: solubility (mole fraction)

smilesInput: O=C1c2cccc(Cl)c2C(=O)N1c1ccccc1
measurementType: solubility (mole fraction)
resultValue: 0.000457

###

- assayContext: in acetone, 295.65 K
measurementType: solubility (mole fraction)

smilesInput: O=C1c2cccc(Cl)c2C(=O)N1c1ccccc1
measurementType: solubility (mole fraction)
resultValue: 0.00392

###

- assayContext: in acetone, 308.15 K
measurementType: solubility (mole fraction)

smilesInput: O=C1c2cccc(Cl)c2C(=O)N1c1ccccc1
measurementType: solubility (mole fraction)
resultValue: 0.00597

###

- assayContext: in 1,4-dioxane, 298.15 K

smilesInput: O=C1c2cccc(Cl)c2C(=O)N1c1ccccc1
solubility (mole fraction): 0.0115

###

- assayContext: in ethyl acetate, 288.15 K

smilesInput: O=C1c2cccc(Cl)c2C(=O)N1c1ccccc1
solubility (mole fraction): 0.0021

###

- assayContext: in methanol, 295.65 K

smilesInput: O=C1c2cccc(Cl)c2C(=O)N1c1ccccc1
solubility (mole fraction): 0.00022

###

- assayContext: in n-butanol, 313.15 K

smilesInput: O=C1c2cccc(Cl)c2C(=O)N1c1ccccc1
solubility (mole fraction): 0.000597

###

- assayContext: in methanol, 305.65 K

smilesInput: O=C1c2cccc(Cl)c2C(=O)N1c1ccccc1
solubility (mole fraction): 0.000339

###

- assayContext: in acetonitrile, 298.15 K
measurementType: solubility (mole fraction)

smilesInput: O=C1c2cccc(Cl)c2C(=O)N1c1ccccc1
resultValue: 0.0028

###

- assayContext: in acetonitrile, 310.65 K

smilesInput: O=C1c2cccc(Cl)c2C(=O)N1c1ccccc1
solubility (mole fraction): 0.0043

###

- assayContext: in 1,4-dioxane, 300.65 K

smilesInput: O=C1c2cccc(Cl)c2C(=O)N1c1ccccc1
solubility (mole fraction): 0.0125

###

- assayContext: in acetone, 313.15 K
measurementType: solubility (mole fraction)

smilesInput: O=C1c2cccc(Cl)c2C(=O)N1c1ccccc1
measurementType: solubility (mole fraction)
resultValue: 0.00718

###

- assayContext: in n-butanol, 288.15 K

smilesInput: O=C1c2cccc(Cl)c2C(=O)N1c1ccccc1
solubility (mole fraction): 0.000183

###

- assayContext: in acetone, 300.65 K

smilesInput: O=C1c2cccc(Cl)c2C(=O)N1c1ccccc1
solubility (mole fraction): 0.00468

###

- assayContext: in 1,4-dioxane, 303.15 K
measurementType: solubility (mole fraction)

smilesInput: O=C1c2cccc(Cl)c2C(=O)N1c1ccccc1
measurementType: solubility (mole fraction)
resultValue: 0.0134
